Data provenance is PubChem BioAssay AID2060882.

viability, T/C values by entry
Test system: 898857-211-R-J1-PDC complex spheroids, growth % test/control;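 note: spheroids exposed to compound for seven days before readout; 100% = DMSO vehicle control wells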
Experiment: Anticancer human tumor 898857-211-R-J1-PDC patient-derived melanoma cell line growth inhibition [RAS]
Conditions: second compound 0.00949 µM; first compound 3.16 µM; active compounds read low
Write the answer as a number in %, unit excluded.

CC(Nc1ccc2c(c1)OCCn1cc(N3C(=O)OCC3C(F)F)nc1-2)C(N)=O (configuration not stated) + CCn1c(-c2cccnc2C(C)OC)c2c3cc(ccc31)N1CCOC(CC(NC(=O)C(C(C)C)N(C)C(=O)C3(F)CCN(C(=O)C#CC(C)(C)N(C)C)CC3)C(=O)N3CCCC(N3)C(=O)OCC(C)(C)C2)C1    78.7

// next item, viability, T/C requested
# compound NC1c2ccccc2OC12CCN(c1cnc3c(N4CCCc5ncccc54)n[nH]c3n1)CC2 (configuration not stated) + CCn1c(-c2cccnc2C(C)OC)c2c3cc(ccc31)N1CCOC(CC(NC(=O)C(C(C)C)N(C)C(=O)C3(F)CCN(C(=O)C#CC(C)(C)N(C)C)CC3)C(=O)N3CCCC(N3)C(=O)OCC(C)(C)C2)C1 ; its viability, T/C = 89
